assay: yeast display, Sf9 membrane polyspecificity reagent, FACS + sequencing; frameworks hold sequencing errors
READOUT: polyreactivity (PSR sort gate)

ITEM SEQUENCE	READOUT	DATA VALUE
QVQLVESGGGLVQAGGSLRLSCAASGSIFRYYAMGWYRQAPGKETEFGADISASGGSTYYADSVKGRFTISRDNAQNTVYLQMNSLKPEDNAVYYWAARYSYRRPGGYQLGSWGQGTQVTVSS	polyreactivity (PSR sort gate)	high polyreactivity
QVQLVESGGGLVQAGGSLRLSCAASGFIFFQYAMGWYRQAPGKERELVAAISSGGNTYYADSVKGRFTISRDNAKNTVYLQMNSLKPEDTAVYYCAAYYPLRKGYGYWGQGTQVTVSS	polyreactivity (PSR sort gate)	high polyreactivity
QDQLVESGGGLVQAGGSLRLSCAASGSTFQDYAMGWYRQAPGKERELVAAITYSGGSTYYADSVKGRFTISRDIAKNTVYLQMNSLKPEDTAVYYCAAKDTTVFYYDDDYWGHGTQVTVSS	polyreactivity (PSR sort gate)	low polyreactivity
QVQLVESGGGLVQAGGSLRLSCAASGRTSDGYARGWYRQAPGKERELVAGITEGGGDTYYADSVKGRFTISRDNAKNTVYLQMNSLKPEDTAVYYCNAVEGSRLPYDYWGQGTQVTVSS	polyreactivity (PSR sort gate)	low polyreactivity
QVQLVESGGGLVQAGGSLRLSCAASGFTFIRYAMGWYRQAPGKERELVAAIRGTGTSTYYADSVKGRFTISRDNAKNTVYLQMNSLKPEDTAVYYCNKVSGRSPYTRYDYWGQGTQVTVSS	polyreactivity (PSR sort gate)	low polyreactivity
